# studySystem: hGLP-1R (Homo sapiens, UniProt P43220)
# Sequence (P43220 24-463): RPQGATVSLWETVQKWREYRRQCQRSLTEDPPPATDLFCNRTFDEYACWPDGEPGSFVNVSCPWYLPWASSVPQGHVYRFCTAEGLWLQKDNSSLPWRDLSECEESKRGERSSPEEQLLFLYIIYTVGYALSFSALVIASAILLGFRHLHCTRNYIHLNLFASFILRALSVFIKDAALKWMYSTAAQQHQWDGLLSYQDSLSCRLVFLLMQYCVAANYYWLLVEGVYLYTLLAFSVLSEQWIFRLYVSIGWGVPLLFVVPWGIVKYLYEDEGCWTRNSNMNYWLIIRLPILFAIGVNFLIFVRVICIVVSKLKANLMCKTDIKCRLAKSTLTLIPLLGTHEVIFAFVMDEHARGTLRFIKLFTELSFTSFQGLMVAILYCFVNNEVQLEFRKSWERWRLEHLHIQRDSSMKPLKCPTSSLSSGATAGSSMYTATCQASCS
# experimentDescription: cell-based or functional assay
recordedEndpoint: log10 Relative cAMP EC50 (log10 of the value in nM)
Record value = log10 of Relative cAMP EC50 given in nM.

Which log10 Relative cAMP EC50 is reported for this binder? YXQGTFTSDXSXXLDKKAQXAFIEYLIAGGPSSGEPPPSGTEE (synthetic construct; SITE 2: note = 2-Aminoisobutyric Acid; SITE 10: note = 3-(4-Pyridyl)-L-alanine; SITE 12: note = L-ornithine; SITE 13: note = alpha-methyl-leucine; SITE 17: note = Lysine is chemically modified through conjugation of the epsilon-amino group of the Lysine side chain with (gamma-Gl)) [Example 981]
0.65

Which log10 Relative cAMP EC50 is reported for this binder? YXQGTFTSDFSXXLDKKAQXAFIEYLLEGGPSSXAPPPGGS (not fully specified; synthetic construct; SITE 2: note = 2-Aminoisobutyric Acid; SITE 12: note = L-ornithine; SITE 13: note = alpha-methyl-leucine; SITE 17: note = Lysine is chemically modified through conjugation of the epsilon-amino group of the Lysine side chain with (gamma-Glu)2-CO-(CH2)16-CO2H; SITE 20: note = 2-Am) [Example 770]
0.59

Which log10 Relative cAMP EC50 is reported for this binder? YXQGTXTSDYSILLDKKAQXAFIEYLLEGGPSSGAPPPE (not fully specified; synthetic construct; SITE 2: note = 2-Aminoisobutyric Acid; SITE 6: note = alpha-methyl-2-fluoro-L-phenylalanine; SITE 17: note = Lysine is chemically modified through conjugation of the epsilon-amino group of the Lysine side chain with (2-[2-(2-Amino-ethoxy)-ethoxy]-acetyl)2-(gamma-Glu)-CO-(CH2 )18) [Example 386]
-0.56

Which log10 Relative cAMP EC50 is reported for this binder? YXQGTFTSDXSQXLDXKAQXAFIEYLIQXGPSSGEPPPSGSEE (not fully specified; non-natural residues, γGlu-C18 diacid acyl on K, C-terminal amide; synthetic construct; SITE 2: note = 2-Aminoisobutyric Acid; SITE 10: note = 3-(4-Pyridyl)-L-alanine; SITE 13: note = alpha-methyl-leucine; SITE 16: note = L-ornithine; SITE 17: note = Lysine is chemically modified through conjugation of the epsilon-amino group of the Lysine side chain with D-Glutami) [Example 1102]
0.34

Which log10 Relative cAMP EC50 is reported for this binder? YXQGTXTSDXSILLDKKAQXAFIEYLEEGGPSSGAPPPSGSGE (non-natural residues, C18 diacid acylation, C-terminal amide; synthetic construct; SITE 2: note = 2-Aminoisobutyric Acid; SITE 6: note = alpha-methyl-2-fluoro-L-phenylalanine; SITE 10: note = 3-(4-Pyridyl)-L-alanine; SITE 17: note = Lysine is chemically modified through conjugation of the epsilon-amino group of the Lysine side chain with (gamma-Glu)2-CO-(CH2)1) [Example 618]
0.18

Which log10 Relative cAMP EC50 is reported for this binder? YXQGTFTSDFSXXLDKKAQXAFIEYLLAGGPSSGAPPPEGE (synthetic construct; SITE 2: note = 2-Aminoisobutyric Acid; SITE 12: note = L-ornithine; SITE 13: note = alpha-methyl-leucine; SITE 17: note = Lysine is chemically modified through conjugation of the epsilon-amino group of the Lysine side chain with (2-[2-(2-Amino-ethoxy)-ethoxy]-acetyl)-(gamma-Glu)) [Example 99]
0.55

Which log10 Relative cAMP EC50 is reported for this binder? YXQGTFTSDFSKXLDKKAQXAFIEYLLAGGPSSGEPPPSEE (Aib, alpha-methyl-Leu, acylated Lys, C-terminal amide; synthetic construct; SITE 2: note = 2-Aminoisobutyric Acid; SITE 13: note = alpha-methyl-leucine; SITE 17: note = Lysine is chemically modified through conjugation of the epsilon-amino group of the Lysine side chain with (2-[2-(2-Amino-ethoxy)-ethoxy]-acetyl)-(gamma-Glu)-CO-(CH2) 18-CO2H; SITE 20: n) [Example 4]
0.22

Which log10 Relative cAMP EC50 is reported for this binder? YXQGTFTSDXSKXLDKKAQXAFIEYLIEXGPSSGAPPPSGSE (synthetic construct; SITE 2: note = 2-Aminoisobutyric Acid; SITE 10: note = 3-(4-Pyridyl)-L-alanine; SITE 13: note = alpha-methyl-leucine; SITE 17: note = Lysine is chemically modified through conjugation of the epsilon-amino group of the Lysine side chain with (gamma-Glu)2-CO-(CH2)16-CO2H; SITE 20:) [Example 904]
0.29

Which log10 Relative cAMP EC50 is reported for this binder? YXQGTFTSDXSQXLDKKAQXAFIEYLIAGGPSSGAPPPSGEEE (acylated Lys, C-terminal amide, non-natural residues; synthetic construct; SITE 2: note = 2-Aminoisobutyric Acid; SITE 10: note = 3-(4-Pyridyl)-L-alanine; SITE 13: note = alpha-methyl-leucine; SITE 17: note = Lysine is chemically modified through conjugation of the epsilon-amino group of the Lysine side chain with (Glu)2-(gamma-Glu)-CO-(CH2)16-CO2H; SI) [Example 1090]
0.74

Which log10 Relative cAMP EC50 is reported for this binder? YXQGTFTSDFSXXLDKKAQXAFIEYLIEXGESSGAPPPSGS (non-natural residues; lipidated Lys AEEA-γGlu-C18 diacid; C-term amide; synthetic construct; SITE 2: note = 2-Aminoisobutyric Acid; SITE 12: note = L-ornithine; SITE 13: note = alpha-methyl-leucine; SITE 17: note = Lysine is chemically modified through conjugation of the epsilon-amino group of the Lysine side chain with (2-[2-(2-Amino-ethoxy)-ethoxy]-acetyl)-(gamma-Glu)) [Example 229]
0.20

Which log10 Relative cAMP EC50 is reported for this binder? YXQGTFTSDFSXXLDXKAQXAFIEXLLAGGPSSGAPPPEGSEE (non-natural residues, (γGlu)2-C18 diacid lysine acylation, C-terminal amide; synthetic construct; SITE 2: note = 2-Aminoisobutyric Acid; SITE 12: note = L-ornithine; SITE 13: note = alpha-methyl-leucine; SITE 16: note = L-ornithine; SITE 17: note = Lysine is chemically modified through conjugation of the epsilon-amino group of the Lysine side chain with (gamma-Glu)2-CO-(CH2)) [Example 1053]
0.79

Which log10 Relative cAMP EC50 is reported for this binder? YXQGTFTSDXSXXLDKKAQXAFIEYLIEXGESSGAPPPSGS (Aib, 4Pal, Orn, αMeL, αMe4Pal, acylated Lys, amide; synthetic construct; SITE 2: note = 2-Aminoisobutyric Acid; SITE 10: note = 3-(4-Pyridyl)-L-alanine; SITE 12: note = L-ornithine; SITE 13: note = alpha-methyl-leucine; SITE 17: note = Lysine is chemically modified through conjugation of the epsilon-amino group of the Lysine side chain with (2-[2-(2-) [Example 223]
0.45

Which log10 Relative cAMP EC50 is reported for this binder? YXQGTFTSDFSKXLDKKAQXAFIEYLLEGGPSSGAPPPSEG (not fully specified; synthetic construct; SITE 2: note = 2-Aminoisobutyric Acid; SITE 13: note = alpha-methyl-leucine; SITE 17: note = Lysine is chemically modified through conjugation of the epsilon-amino group of the Lysine side chain with (2-[2-(2-Amino-ethoxy)-ethoxy]-acetyl)-(gamma-Glu)-CO-(CH2) 16-CO2H; SITE 20: n) [Example 48]
0.48

Which log10 Relative cAMP EC50 is reported for this binder? YXQGTXTSDXSILLDKKAQXAFIEYLEEGGPSSGEPPPSGTEE (non-natural residues, acylated Lys ((γGlu)2-C18 diacid), C-terminal amide; synthetic construct; SITE 2: note = 2-Aminoisobutyric Acid; SITE 6: note = alpha-methyl-2-fluoro-L-phenylalanine; SITE 10: note = 3-(4-Pyridyl)-L-alanine; SITE 17: note = Lysine is chemically modified through conjugation of the epsilon-amino group of the Lysine side chain with (gamma-Glu)2-CO-(CH2)1) [Example 608]
0.27

Which log10 Relative cAMP EC50 is reported for this binder? YXQGTFTSDFSXXLDKKAQXAFIEWLLEGGSSSGAPPPGGT (synthetic construct; SITE 2: note = 2-Aminoisobutyric Acid; SITE 12: note = L-ornithine; SITE 13: note = alpha-methyl-leucine; SITE 17: note = Lysine is chemically modified through conjugation of the epsilon-amino group of the Lysine side chain with (2-[2-(2-Amino-ethoxy)-ethoxy]-acetyl)-(gamma-Glu)) [Example 272]
0.42

Which log10 Relative cAMP EC50 is reported for this binder? YXQGTXTSDXXIXLDXKAQXEFIEXLIEGGPSSGEPPPGGE (non-natural residues; lipidated Lys AEEA-γGlu-C18 diacid; C-term amide; synthetic construct; SITE 2: note = 2-Aminoisobutyric Acid; SITE 6: note = alpha-methyl-2-fluoro-L-phenylalanine; SITE 10: note = 3-(4-Pyridyl)-L-alanine; SITE 11: note = alpha-methyl-L-serine; SITE 13: note = alpha-methyl-leucine; SITE 16: note = L-ornithine; SITE 17: note = Lysine is chemically mo) [Example 1145]
-0.50

Which log10 Relative cAMP EC50 is reported for this binder? YXQGTFTSDFSXXLDKKAQXAFIEYLIEXGESSGAPPPSGS (acylated Lys, C-terminal amide, non-natural residues; synthetic construct; SITE 2: note = 2-Aminoisobutyric Acid; SITE 12: note = L-ornithine; SITE 13: note = alpha-methyl-leucine; SITE 17: note = Lysine is chemically modified through conjugation of the epsilon-amino group of the Lysine side chain with (2-[2-(2-Amino-ethoxy)-ethoxy]-acetyl)-(gamma-Glu)) [Example 218]
-0.12

Which log10 Relative cAMP EC50 is reported for this binder? YXQGTXTSDXSIXLDXKAQXEFIEXLLEGGPSSGEPPPSGS (non-natural residues; lipidated Lys; C-terminal amide; synthetic construct; SITE 2: note = 2-Aminoisobutyric Acid; SITE 6: note = alpha-methyl-2-fluoro-L-phenylalanine; SITE 10: note = 3-(4-Pyridyl)-L-alanine; SITE 13: note = alpha-methyl-leucine; SITE 16: note = L-ornithine; SITE 17: note = Lysine is chemically modified through conjugation of the epsil) [Example 645]
-0.22

Which log10 Relative cAMP EC50 is reported for this binder? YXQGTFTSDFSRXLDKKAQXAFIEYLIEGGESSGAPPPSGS (synthetic construct; SITE 2: note = 2-Aminoisobutyric Acid; SITE 13: note = alpha-methyl-leucine; SITE 17: note = Lysine is chemically modified through conjugation of the epsilon-amino group of the Lysine side chain with (2-[2-(2-Amino-ethoxy)-ethoxy]-acetyl)-(gamma-Glu)-CO-(CH2) 16-CO2H; SITE 20: n) [Example 794]
0.10

Which log10 Relative cAMP EC50 is reported for this binder? YXQGTXTSDXSILLDKKAQXAFIEYLEEGGPSSGAPPPSGAGE (Aib, αMeF(2F), 4Pal; acylated K; C-terminal amide; synthetic construct; SITE 2: note = 2-Aminoisobutyric Acid; SITE 6: note = alpha-methyl-2-fluoro-L-phenylalanine; SITE 10: note = 3-(4-Pyridyl)-L-alanine; SITE 17: note = Lysine is chemically modified through conjugation of the epsilon-amino group of the Lysine side chain with (gamma-Glu)2-CO-(CH2)1) [Example 620]
-0.01

Which log10 Relative cAMP EC50 is reported for this binder? YXQGTXTSDXXILLDXKAQXXFIEXLQEGGPSSGEPPPEGAE (synthetic construct; SITE 2: note = 2-Aminoisobutyric Acid; SITE 6: note = alpha-methyl-2-fluoro-L-phenylalanine; SITE 10: note = 3-(4-Pyridyl)-L-alanine; SITE 11: note = alpha-methyl-L-serine; SITE 16: note = L-ornithine; SITE 17: note = Lysine is chemically modified through conjugation of the epsi) [Example 546]
-0.29

Which log10 Relative cAMP EC50 is reported for this binder? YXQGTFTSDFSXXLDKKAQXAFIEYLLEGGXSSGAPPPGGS (Aib, Orn, αMeL, Hyp; lipidated Lys; C-terminal amide; synthetic construct; SITE 2: note = 2-Aminoisobutyric Acid; SITE 12: note = L-ornithine; SITE 13: note = alpha-methyl-leucine; SITE 17: note = Lysine is chemically modified through conjugation of the epsilon-amino group of the Lysine side chain with (2-[2-(2-Amino-ethoxy)-ethoxy]-acetyl)-(gamma-Glu)) [Example 234]
0.67

Which log10 Relative cAMP EC50 is reported for this binder? YXQGTXTSDXXIXLDXKAQXXFIEXLQEGGPSSGEPPPE (synthetic construct; SITE 2: note = 2-Aminoisobutyric Acid; SITE 6: note = alpha-methyl-2-fluoro-L-phenylalanine; SITE 10: note = 3-(4-Pyridyl)-L-alanine; SITE 11: note = alpha-methyl-L-serine; SITE 13: note = alpha-methyl-leucine; SITE 16: note = L-ornithine; SITE 17: note = Lysine is chemically mo) [Example 439]
-0.53

Which log10 Relative cAMP EC50 is reported for this binder? YXQGTFTSDFSXXLDKKAQXAFIEWLLEGGHSSGAPPPGGE (synthetic construct; SITE 2: note = 2-Aminoisobutyric Acid; SITE 12: note = L-ornithine; SITE 13: note = alpha-methyl-leucine; SITE 17: note = Lysine is chemically modified through conjugation of the epsilon-amino group of the Lysine side chain with (2-[2-(2-Amino-ethoxy)-ethoxy]-acetyl)2-(gamma-Glu)) [Example 271]
0.70
